Value source: ChEMBL document CHEMBL5579892

Assay: AUC (0 to infinity) in CD-1 mouse at 2 mg/kg, iv
Assay type: ADME, organism-based
Details: in vivo
METRIC: AUC(0-inf) (ng·h/mL)
Numbers only, in ng·h/mL.

Entry CC(c1c[nH]c(=O)c2ccccc12)N(C)C(=O)Nc1ccc(F)c(Cl)c1 (stereo unspecified) , AUC(0-inf) reported as 3520

###

Test system: Hepatitis B virus
Assay: Antiviral activity against HBV infected in HepDE19 cells
Type: functional, organism-based
METRIC: pEC50
One number for each entry, as −log10 of the molar value.

CC(C)CN(C(=O)Nc1ccc(F)c(Cl)c1)C(C)c1c[nH]c(=O)c2ccccc12 (centres undefined) = 8.15
C[C@H](c1c[nH]c(=O)c2cc(F)c(F)cc12)N(C)C(=O)c1cc2cc(F)c(F)cc2[nH]1 = 7.92
COc1ncc(CNC(=O)Nc2ccc(F)c(Cl)c2)c2ccccc12 = 5.05
O=C(Nc1ccc(F)c(Cl)c1)N(Cc1c[nH]c(=O)c2ccccc12)C1CC1 = 6.09
CCN(C(=O)Nc1ccc(F)c(Cl)c1)C(C)c1c[nH]c(=O)c2ccccc12 (centres undefined) = 7.60

Each compound below has a reported value. Please supply its pEC50.
1. C[C@H](c1c[nH]c(=O)c2c(F)cc(F)cc12)N(C)C(=O)Nc1ccc(F)c(Cl)c1
2. C[C@H](c1c[nH]c(=O)c2cc(F)c(F)cc12)N(C)C(=O)Nc1cccc(Cl)c1
3. CC(c1c[nH]c(=O)c2cc(Cl)ccc12)N(C)C(=O)Nc1ccc(F)c(Cl)c1 (racemic)
4. C[C@H](c1c[nH]c(=O)c2c(F)c(F)ccc12)N(C)C(=O)Nc1ccc(F)c(Cl)c1

OUTPUT:
[7.72, 7.74, 6.70, 7.82]
